# System: PKN3;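 note: competition pulldown with Kinobeads ε in cell lysates, inhibitor preincubated 45 min at 4 °C, bound kinases quantified by LC–MS/MS against DMSO control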
# Design: species or system human, MV4-11 + K-562 + COLO205 + SK-N-BE2 + OVCAR-8
# Conditions: read-out: apparent Kd; compound concentrations:0.3nM, 1nM, 3nM, 10nM, 30nM, 100nM, 300nM, 1000nM,R2:0.95736535454590599,slope:1.35169947345033,EC50 Standard Error, by the legend:Standard error of the EC50 estimation as provided by the drc package.
Experimental endpoint: Kd (nM)

| Smiles | Quantitative readout |
| --- | --- |
| Cl.NCc1ccc(-c2nc(-c3ccc(Cl)c(O)c3)c(-c3ccncc3)[nH]2)cc1 | 38.4 |
